# Assayed System: PAI-1 (Homo sapiens, UniProt P05121)
# Sequence (P05121 24-402): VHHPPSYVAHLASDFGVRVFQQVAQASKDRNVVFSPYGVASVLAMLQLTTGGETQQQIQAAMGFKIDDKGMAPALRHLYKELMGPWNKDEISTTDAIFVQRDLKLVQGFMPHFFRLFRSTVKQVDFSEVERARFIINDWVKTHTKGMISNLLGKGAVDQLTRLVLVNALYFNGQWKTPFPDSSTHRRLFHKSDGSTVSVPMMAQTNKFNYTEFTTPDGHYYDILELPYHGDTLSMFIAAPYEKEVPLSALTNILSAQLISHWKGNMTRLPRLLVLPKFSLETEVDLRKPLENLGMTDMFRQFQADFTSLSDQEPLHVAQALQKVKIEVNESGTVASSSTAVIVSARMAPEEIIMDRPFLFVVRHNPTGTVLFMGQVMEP
# Assay Text: biochemical
# Test Context: 20 μM (third part of Table 1); read-out: Degree of inhibition in PAI chromogenic substrate assay
Where a name gives a salt, the structure may show the parent alone.
Experimental Endpoint: inhibition at 20 µM (%)

* CCN(CC)CCOc1ccc(/C=c2\[nH]c(=O)/c(=C/c3ccccc3)[nH]c2=O)cc1 [Compound 5065.HCl] | 12

(1) CN(C)CCCOc1ccc(/C=c2\[nH]c(=O)/c(=C/c3cccc(N4C(=O)c5ccccc5C4=O)c3)[nH]c2=O)cc1
(2) CC(=O)Nc1ccccc1/C=c1\[nH]c(=O)/c(=C/c2ccc(OCCCN(C)C)cc2)[nH]c1=O
Prompt line: inhibition at 20 µM comparison. Which is larger, 1 or 2 ? Kindly give the label for the entry you pick.
Response line: 1

(1) CCCCOc1ccc(/C=c2\[nH]c(=O)/c(=C/c3ccc(OCCCN(C)C)cc3)[nH]c2=O)cc1
(2) CN(C)CCCOc1ccc(/C=c2\[nH]c(=O)/c(=C/c3ccc(C(F)(F)F)cc3)[nH]c2=O)cc1
Prompt line: inhibition at 20 µM comparison. Which is larger, 1 or 2 ? Kindly give the label for the entry you pick.
Response line: 2

----------
# Assayed System: PAI-1 (Homo sapiens)
# Assay Text: biochemical
# Test Context: 12.5 μM; read-out: Degree of inhibition in PAI chromogenic substrate assay
Where a name gives a salt, the structure may show the parent alone.
Experimental Endpoint: inhibition at 12.5 µM (%)

(1) CN(C)CCCOc1ccc(/C=c2\[nH]c(=O)/c(=C/c3ccccc3)[nH]c2=O)cc1 [Compound 1852]
(2) CN(C)CCOc1ccc(/C=c2\[nH]c(=O)/c(=C/c3ccc(F)cc3F)[nH]c2=O)cc1 [Compound 1977]
Prompt line: # min-compare on inhibition at 12.5 µM between 1 and 2 Kindly give the label for the entry you pick.
Response line: 2
(2: 20%, 1: 67%)

(A) CCCCCCC(=O)Oc1ccc(/C=c2\[nH]c(=O)/c(=C/c3ccc(OC)cc3)[nH]c2=O)cc1 [Compound 1887]
(B) COc1ccc(/C=c2\[nH]c(=O)/c(=C/c3ccc(OC(=O)CC(C)(C)C)cc3)[nH]c2=O)cc1 [Compound 1885]
(C) CCCCOc1ccc(/C=c2\[nH]c(=O)/c(=C/c3ccc(OCCCN(C)C)cc3)[nH]c2=O)cc1 [Compound 1920]
(D) CN(C)CCOc1ccc(/C=c2\[nH]c(=O)/c(=C/c3ccc(OCCN(C)C)cc3)[nH]c2=O)cc1 [Compound 1962, dihydrochloride]
Prompt line: Order field: inhibition at 12.5 µM | Direction: descending (largest first) Answer by naming the labels in the order asked.
Response line: C, A, D, B
(C: 50%, A: 5%, D: 1%, B: 0%)

(P) CN(C)CCCOc1ccc(/C=c2\[nH]c(=O)/c(=C/c3ccc(OCCCN(C)C)cc3)[nH]c2=O)cc1 [Compound 1955]
(Q) CC(C)(C)CC(=O)Oc1ccc(/C=c2\[nH]c(=O)/c(=C/c3ccccc3)[nH]c2=O)cc1 [Compound 1889]
(R) CCCCCCOc1ccc(/C=c2\[nH]c(=O)/c(=C/c3ccc(OC)cc3)[nH]c2=O)cc1 [Compound 1907]
Prompt line: Could you please order the items by inhibition at 12.5 µM, going from the lowest number to the highest? Answer by naming the labels in the order asked.
Response line: P, Q, R

(P) COc1ccc(/C=c2\[nH]c(=O)/c(=C/c3ccc(OCCN(C)C)cc3)[nH]c2=O)cc1 [Compound 1911]
(Q) CN(C)CCOc1ccc(/C=c2\[nH]c(=O)/c(=C/c3ccccc3)[nH]c2=O)c(OCCN(C)C)c1 [Compound 1969]
Prompt line: inhibition at 12.5 µM comparison. Which is larger, P or Q ? Kindly give the label for the entry you pick.
Response line: P

(A) CN(C)Cc1ccc(/C=c2\[nH]c(=O)/c(=C/c3ccccc3)[nH]c2=O)cc1 [Compound 1913]
(B) CN(C)CCOc1cccc(/C=c2\[nH]c(=O)/c(=C/c3cccc(OCCN(C)C)c3)[nH]c2=O)c1 [Compound 1947]
Prompt line: # min-compare on inhibition at 12.5 µM between A and B Kindly give the label for the entry you pick.
Response line: B
(B: 1%, A: 14%)
